- TARGET_DESC: CAMKK1 (human) (UniProt Q8N5S9)
- Sequence (Q8N5S9 whole entry, looked up): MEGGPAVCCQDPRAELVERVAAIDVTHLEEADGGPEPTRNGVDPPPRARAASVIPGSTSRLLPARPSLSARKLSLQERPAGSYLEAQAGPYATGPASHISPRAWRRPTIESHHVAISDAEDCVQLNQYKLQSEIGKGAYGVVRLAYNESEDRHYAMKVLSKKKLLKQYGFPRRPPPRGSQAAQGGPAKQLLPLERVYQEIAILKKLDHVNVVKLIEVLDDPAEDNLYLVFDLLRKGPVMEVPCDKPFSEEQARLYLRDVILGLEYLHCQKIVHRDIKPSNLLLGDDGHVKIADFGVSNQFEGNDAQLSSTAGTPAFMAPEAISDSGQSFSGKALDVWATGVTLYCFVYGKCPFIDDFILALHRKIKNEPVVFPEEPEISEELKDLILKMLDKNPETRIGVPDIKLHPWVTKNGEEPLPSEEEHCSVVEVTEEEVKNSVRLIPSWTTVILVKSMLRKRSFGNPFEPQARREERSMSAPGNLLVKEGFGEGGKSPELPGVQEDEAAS
- METHOD_SUMMARY: KINOMEscan competition binding
- ASSAY_SETUP: compound 10.0 µM
Output Fulfilled for records whose kinase still bound, per cent of control is lower than 20%, Not fulfilled for records at or above 20%.

Below, 2 compounds whose answers are already recorded.
COc1cc(C(=O)NC2CCN(C)CC2)ccc1Nc1ncc2c(n1)N(C1CCCC1)CC(C)C(=O)N2C (configuration not stated) :: Not fulfilled
N=C1NC(=O)/C(=C/c2ccc(-c3cncc4ccccc34)o2)S1 :: Fulfilled

# strict comparison: is reported kinase still bound, per cent of control < 20%? input = `CS(=O)(=O)Nc1ccc(-c2cc(/C=C3\SC(=N)NC3=O)c[nH]c2=O)cc1`
Not fulfilled

Field: below-cutoff. Rule: recorded kinase still bound, per cent of control strictly less than 20%. Subject: `CN1CCN(c2ccc(C(=O)Nc3ncc4c(n3)N(C)c3ccccc3C(=O)N4C)cc2)CC1`
Not fulfilled

Quick check: kinase still bound, per cent of control of `Nc1cccc(-c2cc(/C=C3\SC(=O)NC3=O)c[nH]c2=O)c1` under 20%?
Fulfilled

Please indicate whether the reported kinase still bound, per cent of control of `CN1C(=O)c2ccccc2N(C)c2nc(NS(=O)(=O)c3ccc(N)cc3)ncc21` is strictly below 20%.
Not fulfilled

Is 20% strictly greater than the compound's reported kinase still bound, per cent of control? compound: `CN1C(=O)c2ccccc2N(C)c2nc(Nc3ccc(N4CCC(O)CC4)cc3)ncc21`
Not fulfilled

Is kinase still bound, per cent of control of `O=C1NC(=S)S/C1=C\c1ccc(-c2cncc3ccccc23)o1` strictly below 20%?
Fulfilled

---

- TARGET_DESC: RPS6KA1 KD1 (human)
- METHOD_SUMMARY: KINOMEscan competition binding
- ASSAY_SETUP: compound 10.0 µM
Threshold check on kinase still bound, per cent of control: strictly below 70% is true (1); on or above 70% is false (0).

CN1C(=O)c2ccccc2N(C)c2nc(Nc3ccc(N4CCC(O)CC4)cc3)ncc21 :: true (1)
CN1C(=O)[C@H]2CCC[C@H]2N(C2CCCC2)c2nc(Nc3ccc4ncccc4c3)ncc21 :: true (1)
N=C1NC(=O)/C(=C/c2ccc(-c3cncc4ccccc34)o2)S1 :: true (1)
COc1cc(N2CCN(C)CC2)ccc1Nc1ncc2c(n1)N(C)c1sccc1C(=O)N2C :: false (0)

Okay, next one:
Dear reviewer, please state whether `COc1cc(N2CCN(C)CC2)ccc1Nc1ncc2c(n1)N(C)c1ccccc1N(C)C2=O` has kinase still bound, per cent of control strictly beneath 70%.
false (0)

---

So I've got a bunch of compounds here, and I need their kinase still bound, per cent of control values.
- TARGET_DESC: UniProtKB P57078
- Sequence (P57078 whole entry, looked up): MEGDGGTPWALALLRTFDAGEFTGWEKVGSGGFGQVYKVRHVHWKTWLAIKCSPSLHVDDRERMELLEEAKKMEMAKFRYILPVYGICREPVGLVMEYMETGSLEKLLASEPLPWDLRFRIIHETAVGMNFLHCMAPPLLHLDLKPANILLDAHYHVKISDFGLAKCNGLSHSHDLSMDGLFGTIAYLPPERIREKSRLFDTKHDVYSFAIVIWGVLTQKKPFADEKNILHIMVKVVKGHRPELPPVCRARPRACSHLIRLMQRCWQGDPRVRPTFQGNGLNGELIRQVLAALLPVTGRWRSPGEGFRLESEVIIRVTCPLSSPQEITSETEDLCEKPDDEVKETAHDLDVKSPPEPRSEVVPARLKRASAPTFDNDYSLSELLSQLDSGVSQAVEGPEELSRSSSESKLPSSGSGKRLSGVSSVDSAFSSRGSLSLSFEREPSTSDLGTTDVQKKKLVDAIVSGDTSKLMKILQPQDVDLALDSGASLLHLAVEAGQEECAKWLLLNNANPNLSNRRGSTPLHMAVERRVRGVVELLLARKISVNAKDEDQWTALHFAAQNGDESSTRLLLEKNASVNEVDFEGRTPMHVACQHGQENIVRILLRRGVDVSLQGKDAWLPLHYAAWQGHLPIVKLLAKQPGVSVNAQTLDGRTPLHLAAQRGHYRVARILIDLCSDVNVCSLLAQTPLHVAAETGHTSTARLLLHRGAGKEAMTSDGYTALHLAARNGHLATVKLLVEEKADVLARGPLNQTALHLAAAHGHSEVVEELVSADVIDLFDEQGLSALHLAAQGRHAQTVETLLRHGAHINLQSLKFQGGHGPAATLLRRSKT
- METHOD_SUMMARY: KINOMEscan competition binding
- ASSAY_SETUP: compound 10.0 µM
One number for each entry, in %.

Illustrative cases are given below, each with its answer.
O=C1NC(=O)/C(=C/c2c[nH]c(=O)c(-c3ccc(N4CCNCC4)nc3)c2)S1 :: 100
CN1C(=O)[C@H]2CCC[C@H]2N(C2CCCC2)c2nc(Nc3ccc(C(N)=O)cc3)ncc21 :: 30
COc1cc(N2CCN(C)CC2)ccc1Nc1ncc2c(n1)N(C)c1sccc1C(=O)N2C :: 95

Turning to the following compound.
Determine reported kinase still bound, per cent of control for `N=C1NC(=O)/C(=C/c2ccc(-c3ccc(F)cc3O)o2)S1` ; test system: UniProtKB P57078.
4.2
